- testTarget: EP2 subtype of the human PGE2 receptor (Homo sapiens, UniProt P43116)
- Sequence (P43116 whole entry): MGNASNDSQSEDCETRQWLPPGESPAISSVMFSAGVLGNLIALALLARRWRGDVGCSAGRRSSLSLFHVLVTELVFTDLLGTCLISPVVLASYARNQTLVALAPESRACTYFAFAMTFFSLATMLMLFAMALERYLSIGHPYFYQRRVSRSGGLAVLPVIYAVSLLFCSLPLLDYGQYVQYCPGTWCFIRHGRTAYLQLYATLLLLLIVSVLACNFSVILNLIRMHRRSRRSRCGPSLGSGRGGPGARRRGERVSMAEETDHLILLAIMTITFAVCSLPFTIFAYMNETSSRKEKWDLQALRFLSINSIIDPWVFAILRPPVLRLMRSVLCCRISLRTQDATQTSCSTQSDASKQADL
- assayInfo: cAMP antagonism assay (EP2 receptor signal, HTRF cAMP detection)
- runParameters: in the presence of the agonist PGE2
Catalogue of IC50 readings, one per entry.
Number in µM, nothing else.

smilesCode: Cc1[nH]c2c(F)ccc(C)c2c1CCNc1cc(NCc2ccccc2-c2ccccc2)ncn1
readingUnit: µM
reported: 1.4

# context switch: different compound, same IC50
// IC50 lookup, compound = Cc1[nH]c2c(F)ccc(C)c2c1CCNc1cc(NCc2cccnc2)ncn1 , result: 1.6

These data points were gathered from patent US20090023738A1.
